target: T1, human serum albumin (human, UniProt P02768 25-609); test: ELISA, negative control HSA
T1 construct: Negative control of the ELISA; also called HSA
T1 sequence (P02768 25-609 limits assumed): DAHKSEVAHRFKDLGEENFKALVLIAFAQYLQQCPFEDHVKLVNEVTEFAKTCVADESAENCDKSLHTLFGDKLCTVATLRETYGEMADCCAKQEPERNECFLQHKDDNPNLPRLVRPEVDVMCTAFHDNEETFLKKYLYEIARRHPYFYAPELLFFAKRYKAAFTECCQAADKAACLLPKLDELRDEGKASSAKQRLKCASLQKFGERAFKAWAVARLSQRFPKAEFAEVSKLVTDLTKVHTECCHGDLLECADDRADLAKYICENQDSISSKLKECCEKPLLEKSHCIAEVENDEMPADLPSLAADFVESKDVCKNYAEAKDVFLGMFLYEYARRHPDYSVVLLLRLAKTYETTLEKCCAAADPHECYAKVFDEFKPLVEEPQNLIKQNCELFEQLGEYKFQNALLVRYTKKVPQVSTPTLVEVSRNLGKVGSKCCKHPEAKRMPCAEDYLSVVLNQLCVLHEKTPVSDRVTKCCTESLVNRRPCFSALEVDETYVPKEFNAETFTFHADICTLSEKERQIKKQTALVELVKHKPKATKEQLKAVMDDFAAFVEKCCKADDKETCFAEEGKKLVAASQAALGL
Quantity name: ELISA HSA (RLU)
Give bare numbers, in RLU.

Example results:
Binder	Unit annotation	ELISA HSA (RLU)
ISOP193ER9P1H3 (designed binder, not shown: small tags and cut ends) LPAPKNLVVSRVTEDSARLSWTAPDAAFDSFEIYYLEVRNRGEAIVLTVPGSERSYDLTGLKPGTEYHVGIAGVKGGFHSFPLSAIFTT	RLU	400
ISOP193ER9P1G2 (designed binder, not shown: small tags and cut ends) LPAPKNLVVSRVTEDSARLSWTAPDAAFDSFDIYYFEQPVGGEAIVLTVPGSERSYDLTGLKPGTEYLVTIYGVKGGYLSMPLSAIFTT	RLU	720
ISOP193GR9P1G9 (designed binder, not shown: small tags and cut ends) LPAPKNLVVSRVTEDSARLSWTAPDAAFDSFAIFYHEFANSGEAIDLPVPGSERSYDLTGLKPGTEYDVRIYGVKGGTASIPLDAEFTT	RLU	480
ISOP193AR9P1E6 (designed binder, not shown: small tags and cut ends) LPAPKNLVVSRVTEDSARLSWKFHSPTFDSFLIQYQESEKVGEAIVLTVPGSERSYDLTGLKPGTEYTVSIYGVGRHYTVYDSNPLSAIVTT	RLU	720

Okay, now this binder:
Exercise: Give the reported ELISA HSA (RLU) for this binder. ISOP193ER9P1D4 (designed binder, not shown: small tags and cut ends) LPAPKNLVVSRVTEDSARLSWTAPDAAFDSFDIYYFEHPVGGEAIVLTVPGSERSYDLTGLKPGTEYLVTIYGVKGGTYSPPLSAIFTT
Solution: 480
